Hello, the source for this data is ChEMBL document CHEMBL2331353, in case you need it.

# study-target: Prostaglandin G/H synthase 2 (Mus musculus)
# Sequence (Q05769 whole entry): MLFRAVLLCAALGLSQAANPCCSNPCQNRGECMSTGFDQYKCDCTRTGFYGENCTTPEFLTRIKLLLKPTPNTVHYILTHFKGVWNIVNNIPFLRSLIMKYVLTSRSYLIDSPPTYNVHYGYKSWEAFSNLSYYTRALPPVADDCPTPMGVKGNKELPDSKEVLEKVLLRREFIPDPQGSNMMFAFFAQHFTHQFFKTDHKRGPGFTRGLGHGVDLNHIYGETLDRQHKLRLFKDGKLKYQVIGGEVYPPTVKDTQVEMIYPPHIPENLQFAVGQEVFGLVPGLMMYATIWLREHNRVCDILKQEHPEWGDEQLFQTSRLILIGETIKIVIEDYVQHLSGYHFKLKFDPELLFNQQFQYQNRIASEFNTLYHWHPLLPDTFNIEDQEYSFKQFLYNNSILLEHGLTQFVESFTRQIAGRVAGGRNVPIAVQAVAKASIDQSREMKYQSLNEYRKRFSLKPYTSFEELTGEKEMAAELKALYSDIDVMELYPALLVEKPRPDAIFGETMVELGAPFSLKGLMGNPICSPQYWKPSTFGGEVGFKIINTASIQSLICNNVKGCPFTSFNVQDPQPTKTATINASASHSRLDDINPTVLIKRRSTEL
# assay-text: Inhibition of COX-2 in mouse RAW264.7 cells assessed as decrease in LPS-induced PGE2 production
Can you tell me pIC50 for the items I'm about to list?
Answers are plain numbers, as −log10 of the molar value.

CCCCN(CCCC)C(=O)/C=C/c1c(/C=C/c2ccc(OC)cc2)cc(OC)cc1OC; 5.39
COc1ccc(/C=C/c2cc(OC)cc(OC)c2/C=C/C(=O)N2CCOCC2)cc1; 6.07
CCCN(CCC)C(=O)/C=C/c1c(/C=C/c2ccc(OC)cc2)cc(OC)cc1OC; 5.41
COc1ccc(/C=C/c2cc(OC)cc(OC)c2/C=C/C(=O)N2CC(C)CC(C)C2)cc1 (stereo not given); 6.24
COc1ccc(/C=C/c2cc(OC)cc(OC)c2/C=C/C(=O)N2CCN(C)CC2)cc1; 5.79

Batch request: pIC50 per item, same order as input.
1. COc1ccc(/C=C/c2cc(OC)cc(OC)c2/C=C/C(=O)NC2CCCCC2)cc1
2. COc1ccc(/C=C/c2cc(OC)cc(OC)c2/C=C/C(=O)NC2CC2)cc1
3. COc1ccc(/C=C/c2cc(OC)cc(OC)c2/C=C/C(=O)NCc2ccco2)cc1
4. CCCCNC(=O)/C=C/c1c(/C=C/c2ccc(OC)cc2)cc(OC)cc1OC
5. COc1ccc(/C=C/c2cc(OC)cc(OC)c2/C=C/C(=O)N2CCCCC2C)cc1 (stereo not given)

Response:
[5.70, 5.15, 5.50, 6.55, 5.61]

----------
Can you tell me pIC50 for the items I'm about to list?
# System: MCF7
# assay-text: Antitumor activity against human MCF7 cells assessed as inhibition of cell proliferation after 48 hrs by MTT assay
# Format: functional, cell-based
# assay-conditions: MCF7, 48 h
Give bare numbers, as −log10 of the molar value.

COc1ccc(/C=C/c2cc(OC)cc(OC)c2/C=C/C(=O)N2CCCCC2C)cc1 (stereo not given); 5.36
CCCCCCNC(=O)/C=C/c1c(/C=C/c2ccc(OC)cc2)cc(OC)cc1OC; 5.26
COc1ccc(/C=C/c2cc(OC)cc(OC)c2/C=C/C(=O)Nc2cc(OC)c(OC)c(OC)c2)cc1; 5.15
COc1ccc(/C=C/c2cc(OC)cc(OC)c2/C=C/C(=O)N2CCCC2)cc1; 5.38

Next up:
Request: Provide one value: measured pIC50 of CCC1CCCCN1C(=O)/C=C/c1c(/C=C/c2ccc(OC)cc2)cc(OC)cc1OC (stereo not given)
Response: 5.28

----------
Can you tell me IC50 for the items I'm about to list?
# System: MCF7
# assay-text: Antitumor activity against human MCF7 cells assessed as inhibition of cell proliferation after 48 hrs by MTT assay
# Assay type: functional, cell-based
# assay-conditions: MCF7, 48 h
Give bare numbers, in µM.

C#CCNC(=O)/C=C/c1c(/C=C/c2ccc(OC)cc2)cc(OC)cc1OC; 4.56
COc1ccc(/C=C/c2cc(OC)cc(OC)c2/C=C/C(=O)NCCCCl)cc1; 1.98
COc1ccc(/C=C/c2cc(OC)cc(OC)c2/C=C/C(=O)NC(C)(C)C)cc1; 13.6

Request: Provide one value: measured IC50 of CCCCN(CCCC)C(=O)/C=C/c1c(/C=C/c2ccc(OC)cc2)cc(OC)cc1OC
Response: 3.99

----------
# System: MCF7
# assay-text: Antitumor activity against human MCF7 cells assessed as inhibition of cell proliferation after 48 hrs by MTT assay
# Format: functional, cell-based
# assay-conditions: MCF7, 48 h
Cut-off 4 µM on IC50: below means 1 (yes), at or above means 0 (no).

Answered cases to consult:
CCCNC(=O)/C=C/c1c(/C=C/c2ccc(OC)cc2)cc(OC)cc1OC; 0 (no)
COc1ccc(/C=C/c2cc(OC)cc(OC)c2/C=C/C(=O)N2CCC(c3ccccc3)CC2)cc1; 0 (no)

Request: Criterion: IC50 strictly below 4 µM. Is it met by COc1ccc(/C=C/c2cc(OC)cc(OC)c2/C=C/C(=O)N(C)C)cc1 ?
Response: 0 (no)

Request: Criterion: IC50 strictly below 4 µM. Is it met by CCNC(=O)/C=C/c1c(/C=C/c2ccc(OC)cc2)cc(OC)cc1OC ?
Response: 0 (no)

Request: Criterion: IC50 strictly below 4 µM. Is it met by COc1ccc(/C=C/c2cc(OC)cc(OC)c2/C=C/C(=O)N2CCC(C)CC2)cc1 ?
Response: 0 (no)

----------
# Test system: MCF7
# assay-text: Antitumor activity against human MCF7 cells assessed as inhibition of cell proliferation after 48 hrs by MTT assay
# Format: functional, cell-based
# assay-conditions: MCF7, 48 h
Can you tell me pIC50 for the items I'm about to list?
Numbers only, as −log10 of the molar value.

COc1ccc(/C=C/c2cc(OC)cc(OC)c2/C=C/C(=O)NCC(C)C)cc1; 5.28
COc1ccc(/C=C/c2cc(OC)cc(OC)c2/C=C/C(=O)NCc2ccco2)cc1; 5.27

Next up:
Request: Provide one value: measured pIC50 of CCCCCCN(CCCCCC)C(=O)/C=C/c1c(/C=C/c2ccc(OC)cc2)cc(OC)cc1OC
Response: 5.39

----------
# study-target: Prostaglandin G/H synthase 2 (Homo sapiens, UniProt P35354)
# Sequence (P35354 whole entry): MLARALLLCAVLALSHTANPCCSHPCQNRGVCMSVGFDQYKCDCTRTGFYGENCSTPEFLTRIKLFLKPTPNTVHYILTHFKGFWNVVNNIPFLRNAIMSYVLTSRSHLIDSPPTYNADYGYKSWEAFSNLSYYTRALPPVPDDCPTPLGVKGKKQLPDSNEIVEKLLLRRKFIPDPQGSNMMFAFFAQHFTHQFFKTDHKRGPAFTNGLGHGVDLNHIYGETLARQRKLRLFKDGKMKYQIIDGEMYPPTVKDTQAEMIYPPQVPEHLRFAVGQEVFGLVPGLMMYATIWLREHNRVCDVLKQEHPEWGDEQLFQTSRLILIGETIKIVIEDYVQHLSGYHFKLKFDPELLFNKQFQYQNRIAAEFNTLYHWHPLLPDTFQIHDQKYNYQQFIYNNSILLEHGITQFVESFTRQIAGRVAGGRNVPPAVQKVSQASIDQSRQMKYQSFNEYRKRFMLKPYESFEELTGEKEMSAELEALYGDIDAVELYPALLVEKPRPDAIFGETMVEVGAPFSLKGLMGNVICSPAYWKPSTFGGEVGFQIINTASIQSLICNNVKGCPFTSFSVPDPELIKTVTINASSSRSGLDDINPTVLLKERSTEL
# assay-text: Inhibition of COX-2 (unknown origin) by chemiluminescence assay
readout-kind: IC50 (µM)
Numbers only, in µM.

CCCN(CCC)C(=O)/C=C/c1c(/C=C/c2ccc(OC)cc2)cc(OC)cc1OC; 8.06
COc1ccc(/C=C/c2cc(OC)cc(OC)c2/C=C/C(=O)N2CCC(c3ccccc3)CC2)cc1; 8.57

Request: Provide IC50, tested on Prostaglandin G/H synthase 2 (Homo sapiens, UniProt P35354), for COc1ccc(/C=C/c2cc(OC)cc(OC)c2/C=C/C(=O)N2CCSCC2)cc1 .
Response: 8.01

----------
pIC50: −log10 of the molar value.
Heads up, these molecules all have pIC50 values measured for Prostaglandin G/H synthase 1 (Homo sapiens).

// below: answered molecules
COc1ccc(/C=C/c2cc(OC)cc(OC)c2/C=C/C(=O)NCC(C)C)cc1; < 4.30
CCC(C)NC(=O)/C=C/c1c(/C=C/c2ccc(OC)cc2)cc(OC)cc1OC (stereo not given); < 4.30
COc1ccc(/C=C/c2cc(OC)cc(OC)c2/C=C/C(=O)NCCCl)cc1; 4.49
COc1ccc(/C=C/c2cc(OC)cc(OC)c2/C=C/C(=O)NC(C)(C)C)cc1; < 4.30

Request: Provide one value: measured pIC50 of CCCCCCN(CCCCCC)C(=O)/C=C/c1c(/C=C/c2ccc(OC)cc2)cc(OC)cc1OC
Response: < 4.30

----------
# System: MCF7
# assay-text: Antitumor activity against human MCF7 cells assessed as inhibition of cell proliferation after 48 hrs by MTT assay
# Type: functional, cell-based
# assay-conditions: MCF7, 48 h
readout-kind: pIC50
Numbers only, as −log10 of the molar value.

CCCCCCCCNC(=O)/C=C/c1c(/C=C/c2ccc(OC)cc2)cc(OC)cc1OC; 5.37
COc1ccc(/C=C/c2cc(OC)cc(OC)c2/C=C/C(=O)NC2CC2)cc1; 5.40
COc1ccc(/C=C/c2cc(OC)cc(OC)c2/C=C/C(=O)N2CCOCC2)cc1; 5.48
C=CCN(CC=C)C(=O)/C=C/c1c(/C=C/c2ccc(OC)cc2)cc(OC)cc1OC; 5.49

Batch request: pIC50 per item, same order as input.
1. CCCCCN(CCCCC)C(=O)/C=C/c1c(/C=C/c2ccc(OC)cc2)cc(OC)cc1OC
2. COc1ccc(/C=C/c2cc(OC)cc(OC)c2/C=C/C(=O)O)cc1
3. COc1ccc(/C=C/c2cc(OC)cc(OC)c2/C=C/C(=O)N2CCC(Cl)CC2)cc1
4. COc1ccc(/C=C/c2cc(OC)cc(OC)c2/C=C/C(=O)N2CCCC(C)C2)cc1 (stereo not drawn)

Response:
[5.21, 5.21, 5.31, 4.92]
